Origin of values: the supplement of paper PMC7125110

B1: glmS ribozyme (parent)
chain: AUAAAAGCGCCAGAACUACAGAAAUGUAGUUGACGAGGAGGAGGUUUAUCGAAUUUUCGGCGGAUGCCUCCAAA

variants of: B1; test: self-cleavage kobs at 640 uM GlcN6P; higher = faster cleavage; RNA array; conditions: with glucosamine-6-phosphate
Variants at the floor of the assay were thinned out.
measured-endpoint: self-cleavage kobs at 640 uM GlcN6P

mutation_spec="G13C A48C C68G" measured_value="< 1e-05 s⁻¹"

Give measured self-cleavage kobs at 640 uM GlcN6P for every item shown.
1. G35C A42U
2. G40A G41A A42U C68G
3. A33U C34U A36C U69G
4. A6C C16A U31C
5. U31G U55G
6. A33C G44C C58U C61A

Ans.
1: < 1e-05 s⁻¹; 2: < 1e-05 s⁻¹; 3: 0.000124 s⁻¹; 4: < 1e-05 s⁻¹; 5: 0.00296 s⁻¹; 6: < 1e-05 s⁻¹

Working through the 6 variants below one at a time, give self-cleavage kobs at 640 uM GlcN6P for each.
1. U49C C50U G51A
2. A1G G37U
3. G44A U55G
4. A15U A36G
5. U54A A64G
6. A6G G51C A53U C67U

Ans.
1: < 1e-05 s⁻¹; 2: < 1e-05 s⁻¹; 3: 0.000141 s⁻¹; 4: < 1e-05 s⁻¹; 5: 0.00654 s⁻¹; 6: < 1e-05 s⁻¹

For each listed entry, give its self-cleavage kobs at 640 uM GlcN6P.
1. A14C A23C G43C
2. A12G U47C
3. U49G U54G C67A
4. C11G A36C G38U C50A U65G
5. A39C G62A
6. A33G U65G
7. U31A A39G
8. A42U G44C C68U

Ans.
["< 1e-05 s⁻¹", "0.000111 s⁻¹", "0.000235 s⁻¹", "< 1e-05 s⁻¹", "< 1e-05 s⁻¹", "< 1e-05 s⁻¹", "0.00495 s⁻¹", "< 1e-05 s⁻¹"]

Hey, quick one: what's self-cleavage kobs at 640 uM GlcN6P for each of these?
1. C8A A36U
2. A6U C50A
3. C67U
4. A6G A36C C50G
5. A33U U54G U56G C61G U69C
6. G13U G66C U69G
7. A48U C50U

Ans.
< 1e-05 s⁻¹
< 1e-05 s⁻¹
0.00529 s⁻¹
0.000132 s⁻¹
0.00035 s⁻¹
7.62e-05 s⁻¹
< 1e-05 s⁻¹

Hi team, please reply with self-cleavage kobs at 640 uM GlcN6P for each item in this list.
1. U45G U46A U57G
2. A6U U69C
3. C34U U56A
4. A12G G43C A53G
5. A15U A39C A42U

Ans.
1. < 1e-05 s⁻¹
2. 6.1e-05 s⁻¹
3. < 1e-05 s⁻¹
4. < 1e-05 s⁻¹
5. < 1e-05 s⁻¹

# return self-cleavage kobs at 640 uM GlcN6P for each item in the list
1. A36C U49G G63A
2. C8A C67U
3. U45G U55C C68U
4. U47A U69G

Ans.
1: < 1e-05 s⁻¹; 2: < 1e-05 s⁻¹; 3: < 1e-05 s⁻¹; 4: 7.68e-05 s⁻¹

Qu. Given U31A C67G , respond with its self-cleavage kobs at 640 uM GlcN6P.
Ans. 0.0001 s⁻¹
